# protocol details: chemical genetic growth profiling, strain panel (AID 1159580);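 note: tested at 20 µM; growth read once vehicle control cultures reached saturation at 30 °C; 1 = growth at the plate median or of vehicle wells; lower values mean less growth of the strain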
# condition description: S. cerevisiae deletion strains, growth OD, locus YJR066W, strain TOR1, active compounds read low
Among all 5,500 compounds or so, about 2,000 (36%) were called active. Another 18% or so got no clear call; they are omitted. The list shows a part of the results.
Provide the recorded normalized growth for the entries that follow.
Numbers only.

compound	normalized growth
Clc1ccc2c(c1)CCc1cccnc1C2=C1CCNCC1	0.932
O=C(O)[C@@H](S)[C@@H](S)C(=O)O	0.417
N[C@@H](C(=O)O)[C@@H](O)[C@H](O)[C@H](O)CO	0.985
O=C(O)C(O)C(O)C(=O)O (configuration not stated)	0.943
O=S(=O)(Nc1csc(C(F)(F)F)c1-c1ccccc1)c1cc(Br)c(Br)s1	0.861
CC1C(c2ccccc2)N(C)C(c2ccccc2)CC1(O)c1ccc(F)cc1 (configuration not stated)	1.13
C[C@]12CCC3c4ccc(OC(=O)c5ccccc5)cc4CCC3C1CCC2=O (some centres not stated)	1.01
C[C@@H]1CC2C3CCC4=CC(=O)C=C[C@]4(C)[C@@]3(F)[C@@H](O)C[C@]2(C)[C@@]1(O)C(=O)CO (some centres not stated)	0.997

# map each compound to its normalized growth
1. Fc1ccc([C@@H]2CCNC[C@H]2COc2ccc3c(c2)OCO3)cc1
2. C[C@]12CCC3c4ccc(O)cc4CCC3C1CCC2=O (some centres not stated)
3. O=C(O)CCC1NCC2CC1CN1CCCCC21 (configuration not stated)
4. C[C@@H]1CC[C@H]2C(C)(C)C3CC12CC[C@@]3(C)O (some centres not stated)

A)
1: 1.02; 2: 0.953; 3: 0.98; 4: 0.975

# map each compound to its normalized growth
1. NC(N)=NCCN1CCCCCCC1
2. CCCCC(=O)O[C@]1(C(=O)CO)CCC2C3CCC4=CC(=O)CC[C@]4(C)C3[C@@H](O)C[C@@]21C (some centres not stated)
3. NC(C(=O)O)C(O)C(=O)O (configuration not stated)
4. CN[C@@H]1C(OC2[C@H](O[C@H]3[C@H](O)[C@@H](O)[C@H](N=C(N)N)[C@@H](O)[C@@H]3N=C(N)N)OC(C)[C@]2(O)CO)OC(CO)C(O)C1O (some centres not stated)
5. CC(C)(S)[C@@H](N)C(=O)O

A)
1: 0.932; 2: 0.943; 3: 0.994; 4: 0.975; 5: 0.952

----------
# protocol details: chemical genetic growth profiling, strain panel (AID 1159580)
# condition description: S. cerevisiae deletion strains, growth OD, locus YML032C, strain rad52, active compounds read low
The whole screen tested about 5,500 compounds, of which about 2,000 (36%) were called active. About 18% were inconclusive and are not listed. The list shows a part of the results.
metric name: normalized growth
Answers are plain numbers.

Completed entries (count: 3):
compound	metric name	reported
NCCCNCCSP(=O)(O)O	normalized growth	0.978
C[C@@H]1CC[C@H]2C(C)(C)C3CC12CC[C@@]3(C)O (some centres undefined)	normalized growth	0.917
CC1OC(O[C@H]2/C=C/C=C/C=C/C=C/C=C/C=C/C=C/[C@H](C)[C@@H](O)[C@@H](C)[C@H](C)OC(=O)CC(O)CC(O)CCC(O)C(O)CC(O)C[C@]3(O)C[C@H](O)C(C(=O)O)C(C2)O3)C(O)[C@H](N)C1O (some centres undefined)	normalized growth	0.996

# map each compound to its normalized growth
1. NCCCCC(=O)O
2. O=c1[nH]c(=O)n(C2C[C@H](O)[C@@H](CO)O2)cc1C(F)(F)F (some centres undefined)
3. O=C(O)C(O)C(O)C(O)C(O)C(=O)O (centres undefined)
4. CCC(C)C(=O)c1c(O)c(C)c2oc3c(C)c(O)c(C(=O)C(C)CC)c(O)c3c2c1O (centres undefined)

A)
1: 0.979; 2: 0.979; 3: 1.02; 4: 0.94

# map each compound to its normalized growth
1. Cc1onc(-c2ccccc2)c1-c1ccc(S(N)(=O)=O)cc1
2. CC(=O)N[C@@H](CCC(=O)O)C(=O)O
3. CC(=O)C1CC[C@H]2C3CC[C@H]4C[C@H](O)CC[C@]4(C)C3CC[C@]12C (some centres undefined)
4. CNc1ccc(C(=O)CC(O)CCC(C)C2OC(=O)CC(O)CC(=O)CC(O)CC(O)CC(O)CC(O)CC3(O)CC(O)C(C(=O)OC)C(CC(OC4OC(C)C(O)C(N)C4O)/C=C/C=C/C=C/C=C/C=C/C=C/C=C/C2C)O3)cc1 (centres undefined)
5. CCCn1c(=O)c2[nH]c(C3CCCC3)nc2n(CCC)c1=O
6. C=NC(C(=O)NC1C(=O)N2C1SC(C)(C)C2C(=O)O)c1ccccc1 (centres undefined)
7. Clc1ccc(COC(Cn2ccnc2)c2ccc(Cl)cc2Cl)cc1 (centres undefined)

A)
1. 0.996
2. 1.03
3. 0.969
4. 0.0764
5. 0.959
6. 1.02
7. 0.0629

----------
# protocol details: chemical genetic growth profiling, strain panel (AID 1159580);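 note: tested at 20 µM; growth read once vehicle control cultures reached saturation at 30 °C; 1 = growth at the plate median or of vehicle wells; lower values mean less growth of the strain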
# condition description: S. cerevisiae deletion strains, growth OD, locus YEL003W, strain gim4, active compounds read low
The whole screen tested about 5,500 compounds, of which about 2,000 (36%) were called active. About 18% were inconclusive and are not listed. Some of the results follow.
Provide the recorded normalized growth for the entries that follow.
Answers are plain numbers.

Completed entries (count: 6):
compound	normalized growth
Cc1cc(CC(=O)O)n(C)c1C(=O)c1ccc(Cl)cc1	1.02
NC(=O)CS(=O)C(c1ccccc1)c1ccccc1 (configuration not stated)	0.99
O=C(O)C(O)C(O)C(=O)O (configuration not stated)	0.998
CC12CCCCC1(Br)[N+](=O)N2[O-] (configuration not stated)	0.994
NC(=O)NC1NC(=O)NC1=O (configuration not stated)	1.01
CCC(=O)OC1[C@@H]2CC3=C4CC(=O)O[C@@H](c5ccoc5)[C@]4(C)CCC3[C@@](C)(C2=O)[C@@H](CC(=O)OC)C1(C)C (some centres not stated)	0.989

Then there is this compound:
Q) Write down normalized growth measured for item CC1C/C=C/C=C/C=C/C=C/C(O[C@@H]2O[C@H](C)[C@@H](O)[C@H](N)[C@@H]2O)CC2OC(O)(CC(O)CC3OC3/C=C/C(=O)O1)CC(O)C2C(=O)O (some centres not stated)
A) 0.991

----------
# protocol details: chemical genetic growth profiling, strain panel (AID 1159580);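 note: tested at 20 µM; growth read once vehicle control cultures reached saturation at 30 °C; 1 = growth at the plate median or of vehicle wells; lower values mean less growth of the strain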
# condition description: S. cerevisiae deletion strains, growth OD, locus YOR231W, strain MKK1, active compounds read low
The whole screen tested about 5,500 compounds, of which about 2,000 (36%) were called active. About 18% were inconclusive and are not listed. The list shows a part of the results.
Threshold check on normalized growth: strictly below 1 is Condition met; on or above 1 is Condition not met.

Example entries and their recorded answers appear below.
molecule	label
CC(=O)O[C@]1(C)CC[C@@]23CC1C(C)(C)[C@@H]2CC[C@H]3C	Condition met
COc1ccc(CCC(=O)c2c(O)cc(O[C@@H]3O[C@H](CO)C(O)[C@H](O)C3O[C@@H]3O[C@@H](C)[C@H](O)[C@@H](O)[C@H]3O)cc2O)cc1O (stereo partly specified)	Condition met
NC(C(=O)O)C(O)C(=O)O (stereo unspecified)	Condition not met
CC(C)c1nc(N(C)S(C)(=O)=O)nc(-c2ccc(F)cc2)c1/C=C/[C@@H](O)C[C@@H](O)CC(=O)O	Condition met
N#CC(C#N)=Cc1c(-c2ccccc2Cl)[nH]c2ccccc12	Condition met
Brc1ccc(-c2csc(-c3cccnc3)n2)cc1	Condition met

Q) Report whether reported normalized growth is lower than 1 (strictly) for `CN(C/C=C/C#CC(C)(C)C)Cc1cccc2ccccc12`
A) Condition met

Q) Report whether reported normalized growth is lower than 1 (strictly) for Cc1ncc([N+](=O)[O-])n1CC(O)CCl (stereo unspecified)
A) Condition met

Q) Report whether reported normalized growth is lower than 1 (strictly) for CC1C(c2ccccc2)N(C)C(c2ccccc2)CC1(O)c1ccc(F)cc1 (stereo unspecified)
A) Condition not met

Q) Report whether reported normalized growth is lower than 1 (strictly) for `O=C(O)[C@@H](S)[C@@H](S)C(=O)O`
A) Condition met

----------
# protocol details: chemical genetic growth profiling, strain panel (AID 1159580);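 note: tested at 20 µM; growth read once vehicle control cultures reached saturation at 30 °C; 1 = growth at the plate median or of vehicle wells; lower values mean less growth of the strain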
# condition description: S. cerevisiae deletion strains, growth OD, locus YCR088W, strain abp1
Among all 5,500 compounds or so, about 2,000 (36%) were called active. About 18% were inconclusive and are not listed. Cut-off read from the data, not from the text of the source: active = normalized growth mostly below about 0.91 (no sharp cut-off); inconclusive = no clear call, values can overlap the other calls; inactive = mostly above about 0.92. The list shows a part of the results.
Valid outcomes are listed here; reply with one: 1 (active), 0 (inactive)

molecule	label
COc1ccc(-c2oc3cc(OC)c(OC)c(OC)c3c(=O)c2OC)cc1OC	0

Q) What was the test verdict on Clc1ccc(C(c2ccccc2Cl)C(Cl)Cl)cc1 (centres undefined) ?
A) 0

Q) What was the test verdict on `CCCn1c(=O)c2[nH]c(C3CCCC3)nc2n(CCC)c1=O` ?
A) 0

Q) What was the test verdict on CC(C)=CC1C(C(=O)OCc2cccc(Oc3ccccc3)c2)C1(C)C (centres undefined) ?
A) 0

Q) What was the test verdict on CC(=O)O[C@H]1C[C@@]2(C)[C@@H](C[C@@H](O)C3[C@]2(C)CC[C@H]2[C@H](C)[C@H](O)CC[C@]32C)/C1=C(/CCC=C(C)C)C(=O)O (some centres undefined) ?
A) 0
